- EXPERIMENT DESCRIPTION: NCI Yeast Anticancer Drug Screen. Data for the sgs1 mgt1 strain (AID 161);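 also: 0% = growth of cultures given vehicle only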
- STUDY CONDITIONS: S. cerevisiae sgs1 mgt1 strain, at 5.0 µM (retest, dose inferred, filed as 0.5), stronger effect = higher value
- Experimental: Growth inhibition of yeast strains with defined genetic alterations is measured as a screen for potential anti-cancer activity. Selected strains with alterations in DNA damage repair or cell cycle control were exposed to compounds and growth inhibition was measured relative to vehicle treated controls. The strain used in this assay is sgs1 mgt1
This is part of a sample that, as a whole, favours compounds with a hit. Of some 79,000 tested, about 15% had one in any assay.
In this section we review reported growth inhibition values for a set of molecules.
EXPERIMENTAL READOUT: growth inhibition (%)

INSERT INTO assay_data (molecule, experimental_readout, quantitative_result) VALUES
  ('CC(C)=CCC(CC=C(C)C)c1ccncc1 (tested in a mixture with another compound)', 'growth inhibition', -92),
  ('ClC(Cl)(Cl)C(c1ccccc1)c1ccccc1', 'growth inhibition', 3),
  ('NSc1ccccn1', 'growth inhibition', 11),
  ('CN(C)CCCNc1cc(O)c2c(c1O)C(=O)c1ccccc1C2=O', 'growth inhibition', 26),
  ('CC(=O)Nc1ccc(S(=O)(=O)N/N=C/c2cc(I)cc([N+](=O)[O-])c2O)cc1', 'growth inhibition', 14),
  ('CN(C)C(=S)SC1(CN2CCOCC2)COc2c(Cl)cc(Cl)cc2C1=O (centres undefined)', 'growth inhibition', 3),
  ('NC(=O)C(=CNc1nc(-c2ccc(Br)cc2)cs1)C(N)=O', 'growth inhibition', -3),
  ('Cc1cn(C(C#N)=C(C#N)C#N)c2ccccc12', 'growth inhibition', -8),
  ('CC(C)(C)CC(C)(C)N[P+](NC(C)(C)CC(C)(C)C)(NC(C)(C)CC(C)(C)C)NC(C)(C)CC(C)(C)C', 'growth inhibition', 81),
  ('CCCCCCCCCCCCCCC(C(=O)O)S(=O)(=O)O (centres undefined)', 'growth inhibition', -3),
  ('CCOC(=O)CC[P+](Cc1ccccc1)(c1ccccc1)c1ccccc1', 'growth inhibition', 2),
  ('ON(C(=Nc1ccc(Cl)cc1)c1ccccc1)c1ccccc1', 'growth inhibition', -5),
  ('[Cu+2].[NH-]c1ccccc1O.[NH-]c1ccccc1[OH2+]', 'growth inhibition', 15),
  ('O=C(O)CNc1ccc2c(c1)Cc1cc(Br)ccc1-2', 'growth inhibition', 55),
  ('OCc1cc2c([nH]c3ccccc32)c(C(O)CO)n1 (centres undefined)', 'growth inhibition', -2),
  ('CN(Nc1ccc(Cl)cc1)c1ccc(Cl)cc1', 'growth inhibition', 0),
  ('COc1cc(C2OC(=O)c3ccccc3S2)ccc1O (centres undefined)', 'growth inhibition', -4),
  ('Nc1ccc(S(=O)(=O)C23CC4CC(CC(C4)C2)C3)cc1', 'growth inhibition', -3),
  ('O=[N+]([O-])/C=C\c1csc2ccccc12', 'growth inhibition', 97),
  ('C=CCCCCO/N=C/c1c2c(O)c3c(O)c(C)c4c(c3c1O)C(=O)C(C)(O/C=C/C(OC)C(C)C(OC(C)=O)C(C)C(O)C(C)C(O)C(C)/C=C/C=C(\C)C(=O)N2)O4 (centres undefined)', 'growth inhibition', 33),
  ('CCS(=O)(=O)/C=C\S(=O)(=O)CC', 'growth inhibition', -64),
  ('N#CSc1ccc(O)cc1', 'growth inhibition', 4),
  ('CN1CCCC1c1cccc(Br)c1 (centres undefined)', 'growth inhibition', -65),
  ('CCCCOc1ccc(CN2CCOC2=O)cc1', 'growth inhibition', 4);
